tested on: P-4E-BP1 (T37/46); assay: Cell based AlphaLISA assay, inhibition of P-4E-BP1 (T37/46) in MDA-MB-468 cells (mTORC1 substrate); conditions: Homo sapiens, 4 h, AlphaLisa, two to four hours at 37° C., read-out: pIC50 for Inhibition of mTORC1 and mTORC2 Substrate Phosphorylation P-4E-BP1-(T37/46) (converted)

MOLECULE_SMILES: CO[C@H]1C[C@@H]2CC[C@@H](C)[C@@](O)(O2)C(=O)C(=O)N2CCCC[C@H]2C(=O)O[C@H]([C@H](C)C[C@@H]2CC[C@@H](OC(=O)N3CCc4nc(N5CCN(CCOCCN6CCN(c7ncc(C(=O)N8CCc9cc(Cn%10nc(-c%11ccc%12oc(N)nc%12c%11)c%11c(N)ncnc%11%10)ccc9C8)cn7)CC6)CC5)ncc4C3)[C@H](OC)C2)C[C@@H](OC)[C@H](C)/C=C(\C)[C@@H](O)[C@@H](OC)C(=O)[C@H](C)C[C@H](C)/C=C/C=C/C=C/1C
IC50: < 3.16 nM

Entry source: patent US10980889B1
